Data credit: patent US20220185822A1

- procedure_summary: in vivo
- condition_description: C57BL/6, mouse, oral, 10 mg/kg

{"columns": ["molecule", "half-life, h"],
 "data": [
  ["NC(=O)c1cc(Cn2cc(-c3c(-c4ccc(Cl)cc4)nc4cc(F)ccn34)nn2)ccc1Cl [Example 93]", 2.83]
]}

====

- procedure_summary: Metabolic stability in human liver S9 fraction
- Assay type: in vitro ADME
- condition_description: read-out: T1/2 in human liver S9 fraction

{"columns": ["molecule", "half-life at 2 μM"],
 "data": [
  ["NC(=O)c1cc(Cn2cc(-c3c(-c4ccc(Cl)cc4)nc4cc(F)ccn34)nn2)ccc1Cl [Example 93]", "> 2.83 h"]
]}

====

- experimental_target: CAR variant 3 (Homo sapiens, UniProt Q14994, DEL233-236)
- Construct: expressed in transfected cells; host or cells: HepG2
- Sequence (Q14994 with tags, fused parts or gaps isoform Q14994-8 DEL233-236): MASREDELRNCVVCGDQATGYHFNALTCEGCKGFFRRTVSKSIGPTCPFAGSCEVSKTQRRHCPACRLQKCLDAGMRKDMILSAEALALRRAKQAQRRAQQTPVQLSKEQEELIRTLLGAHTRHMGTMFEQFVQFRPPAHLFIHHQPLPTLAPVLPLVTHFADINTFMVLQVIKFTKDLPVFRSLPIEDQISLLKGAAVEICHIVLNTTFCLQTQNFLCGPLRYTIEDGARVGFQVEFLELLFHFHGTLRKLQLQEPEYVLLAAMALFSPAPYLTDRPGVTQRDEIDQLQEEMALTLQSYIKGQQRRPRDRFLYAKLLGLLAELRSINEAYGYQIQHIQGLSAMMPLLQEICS
- Sequence (P19793 whole entry partner): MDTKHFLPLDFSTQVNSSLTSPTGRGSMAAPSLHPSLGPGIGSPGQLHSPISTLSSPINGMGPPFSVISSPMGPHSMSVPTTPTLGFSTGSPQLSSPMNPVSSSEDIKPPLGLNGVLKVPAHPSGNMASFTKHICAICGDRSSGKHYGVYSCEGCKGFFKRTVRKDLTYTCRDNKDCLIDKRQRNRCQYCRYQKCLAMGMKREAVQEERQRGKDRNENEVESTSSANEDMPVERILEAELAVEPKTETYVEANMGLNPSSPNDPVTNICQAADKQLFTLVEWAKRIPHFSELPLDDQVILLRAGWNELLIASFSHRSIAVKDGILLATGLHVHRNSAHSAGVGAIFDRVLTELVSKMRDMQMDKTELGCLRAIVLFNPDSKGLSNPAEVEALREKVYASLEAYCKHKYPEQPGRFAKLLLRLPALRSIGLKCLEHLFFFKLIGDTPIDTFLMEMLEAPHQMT
- procedure_summary: Luciferase reporter gene assay with CAR variant 3 in HepG2 cells
- Format: cell-based
- condition_description: tested at 1 μM; HepG2, 24 h

{"columns": ["compound", "experimental_target", "uom", "CAR3 % of CITCO (1 μM) activity at 1 μM"],
 "data": [
  ["CNC(=S)c1cc(Cc2nnc(-c3c(-c4ccc(Cl)cc4)nc4ccccn34)o2)ccc1Cl [Example 150]", "CAR variant 3 (Homo sapiens, UniProt Q14994, DEL233-236)", "%", 176],
  ["CNC(=O)c1cc(Cc2nnc(-c3c(-c4ccc(Cl)cc4)nc4ccccn34)o2)ccc1Cl [Example 152]", "CAR variant 3 (Homo sapiens, UniProt Q14994, DEL233-236)", "%", 91],
  ["CN(C)C(=O)c1cc(Cc2nnc(-c3c(-c4ccc(Cl)cc4)nc4ccccn34)s2)ccc1Cl [Example 149]", "CAR variant 3 (Homo sapiens, UniProt Q14994, DEL233-236)", "%", 168],
  ["NC(=O)c1cc(Cn2cc(-c3c(-c4ccc(Cl)cc4)nc4c(F)cccn34)nn2)ccc1Cl [Example 92]", "CAR variant 3 (Homo sapiens, UniProt Q14994, DEL233-236)", "%", 21],
  ["NC(=O)c1cc(Cn2cc(-c3c(-c4ccc(Cl)cc4)nc4cc(F)ccn34)nn2)ccc1Cl [Example 93]", "CAR variant 3 (Homo sapiens, UniProt Q14994, DEL233-236)", "%", 83]
]}

====

- experimental_target: human CYP2D6 (Homo sapiens, UniProt P10635)
- Sequence (P10635 whole entry): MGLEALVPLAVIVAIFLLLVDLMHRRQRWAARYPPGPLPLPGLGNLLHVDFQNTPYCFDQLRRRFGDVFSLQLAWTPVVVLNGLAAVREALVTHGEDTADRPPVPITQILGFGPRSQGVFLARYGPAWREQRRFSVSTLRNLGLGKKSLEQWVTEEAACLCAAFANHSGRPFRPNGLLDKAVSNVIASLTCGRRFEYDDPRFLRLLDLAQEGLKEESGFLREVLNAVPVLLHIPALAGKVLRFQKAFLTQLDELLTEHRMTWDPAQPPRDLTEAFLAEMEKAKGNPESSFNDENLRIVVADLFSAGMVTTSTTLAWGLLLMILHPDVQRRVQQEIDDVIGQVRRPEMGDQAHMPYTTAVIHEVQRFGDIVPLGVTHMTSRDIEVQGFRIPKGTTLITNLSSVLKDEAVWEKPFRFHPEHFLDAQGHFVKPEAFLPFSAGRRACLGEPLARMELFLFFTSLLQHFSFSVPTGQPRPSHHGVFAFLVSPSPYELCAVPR
measurement_kind: IC50

{"columns": ["compound", "measurement_kind", "value"],
 "data": [
  ["NC(=O)c1cc(Cn2cc(-c3c(-c4ccc(Cl)cc4)nc4cc(F)ccn34)nn2)ccc1Cl [Example 93]", "IC50", "> 10 µM"]
]}
